tested system: S. pneumoniae PheRS (Streptococcus pneumoniae serotype 2)
Sequence (Q04LU1 whole entry): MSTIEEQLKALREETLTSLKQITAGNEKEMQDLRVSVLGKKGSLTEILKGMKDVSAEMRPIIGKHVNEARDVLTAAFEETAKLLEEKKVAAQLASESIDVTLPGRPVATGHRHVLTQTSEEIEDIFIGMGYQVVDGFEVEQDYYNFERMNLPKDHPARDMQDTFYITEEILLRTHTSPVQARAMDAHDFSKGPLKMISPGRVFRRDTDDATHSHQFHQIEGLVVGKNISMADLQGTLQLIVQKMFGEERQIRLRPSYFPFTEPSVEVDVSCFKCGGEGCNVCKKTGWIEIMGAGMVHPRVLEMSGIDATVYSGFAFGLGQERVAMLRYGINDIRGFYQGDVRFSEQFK
readout type: Ki
# output: numeric value plus its unit

# return Ki for "Cc1cc2c(C(C)C)c(O)c(O)c(C=O)c2c(O)c1-c1c(C)cc2c(C(C)C)c(O)c(O)c(C=O)c2c1O" , test system: S. pneumoniae PheRS (Streptococcus pneumoniae serotype 2) 980 nM

====

tested system: P. aeruginosa PheRS (Pseudomonas aeruginosa, UniProt Q9I0A3)
Sequence (Q9I0A4 whole entry): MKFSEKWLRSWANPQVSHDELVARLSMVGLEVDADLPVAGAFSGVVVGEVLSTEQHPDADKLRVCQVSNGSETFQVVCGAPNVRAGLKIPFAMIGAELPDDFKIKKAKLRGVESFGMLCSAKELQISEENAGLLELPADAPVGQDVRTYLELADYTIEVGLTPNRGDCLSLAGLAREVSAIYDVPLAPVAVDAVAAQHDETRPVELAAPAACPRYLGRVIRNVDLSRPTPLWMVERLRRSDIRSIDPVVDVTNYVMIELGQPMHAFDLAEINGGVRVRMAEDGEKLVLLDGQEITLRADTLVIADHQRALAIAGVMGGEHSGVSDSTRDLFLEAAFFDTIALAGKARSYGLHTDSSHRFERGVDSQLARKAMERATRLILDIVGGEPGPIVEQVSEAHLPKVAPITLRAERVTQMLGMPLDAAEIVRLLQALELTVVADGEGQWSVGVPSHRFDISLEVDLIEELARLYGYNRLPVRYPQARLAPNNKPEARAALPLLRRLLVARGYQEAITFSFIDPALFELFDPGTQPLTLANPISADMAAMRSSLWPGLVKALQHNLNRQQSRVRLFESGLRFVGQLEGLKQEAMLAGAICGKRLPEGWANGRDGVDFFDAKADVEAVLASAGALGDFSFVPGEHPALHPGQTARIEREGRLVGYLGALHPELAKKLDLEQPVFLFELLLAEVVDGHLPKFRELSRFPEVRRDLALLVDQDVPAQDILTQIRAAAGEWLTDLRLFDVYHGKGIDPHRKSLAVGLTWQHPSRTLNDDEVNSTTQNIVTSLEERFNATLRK
Sequence (Q9I0A3 whole entry): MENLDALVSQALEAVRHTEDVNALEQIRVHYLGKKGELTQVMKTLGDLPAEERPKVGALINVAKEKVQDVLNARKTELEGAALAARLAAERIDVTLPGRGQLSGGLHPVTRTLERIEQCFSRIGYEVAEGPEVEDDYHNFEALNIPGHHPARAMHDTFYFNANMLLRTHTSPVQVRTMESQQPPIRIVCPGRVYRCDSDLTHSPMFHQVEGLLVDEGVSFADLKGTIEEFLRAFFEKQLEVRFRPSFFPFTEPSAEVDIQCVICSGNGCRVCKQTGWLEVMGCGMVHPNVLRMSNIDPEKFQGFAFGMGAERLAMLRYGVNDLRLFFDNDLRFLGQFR
experimental protocol: tRNA aminoacylation assay in SPA format, P. aeruginosa PheRS
readout type: pIC50
Lab note: report pIC50 as minus log10 of the concentration in molar units, number only.

// output pIC50; input "Cc1cc2c(C(C)C)c(O)c(O)c(C=O)c2c(O)c1-c1c(C)cc2c(C(C)C)c(O)c(O)c(C=O)c2c1O" ; system P. aeruginosa PheRS (Pseudomonas aeruginosa, UniProt Q9I0A3) 5.64

====

tested system: P. aeruginosa PheRS (Pseudomonas aeruginosa, UniProt Q9I0A3)
experimental protocol: tRNA aminoacylation assay in SPA format, P. aeruginosa PheRS
readout type: Ki (nM)
Numbers only; they are read as nM.

Respond only with Ki recorded for Cc1cc2c(C(C)C)c(O)c(O)c(C=O)c2c(O)c1-c1c(C)cc2c(C(C)C)c(O)c(O)c(C=O)c2c1O [BPP_03B04, gossypol] 830
